# maps each entry to its Kd
# TARGET SYSTEM: CYP83B1 (Arabidopsis thaliana)
# Sequence (O65782 1-499): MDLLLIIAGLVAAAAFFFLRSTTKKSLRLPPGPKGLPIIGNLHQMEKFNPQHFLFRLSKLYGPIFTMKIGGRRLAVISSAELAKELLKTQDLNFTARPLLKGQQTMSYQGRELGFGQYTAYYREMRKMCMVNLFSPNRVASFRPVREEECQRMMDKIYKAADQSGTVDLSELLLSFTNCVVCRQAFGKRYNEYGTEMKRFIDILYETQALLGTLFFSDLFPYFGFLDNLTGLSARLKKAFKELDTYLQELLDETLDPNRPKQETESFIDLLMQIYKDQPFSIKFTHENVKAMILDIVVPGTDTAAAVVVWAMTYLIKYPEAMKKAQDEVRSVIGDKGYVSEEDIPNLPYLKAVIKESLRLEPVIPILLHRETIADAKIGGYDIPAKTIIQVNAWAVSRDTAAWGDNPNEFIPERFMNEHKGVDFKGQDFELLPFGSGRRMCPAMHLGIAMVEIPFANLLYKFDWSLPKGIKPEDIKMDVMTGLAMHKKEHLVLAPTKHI
RECORDED METRIC: Kd (µM)

           smiles_repr  recorded_metric  reported_measurement
0  NCCc1c[nH]c2ccccc12               Kd                    18
1          NCCc1ccccc1               Kd                   540

These entries and their values trace back to patent US20050223431A1.
